Sourced from paper PMC12224939

System: lentiviral pseudoparticles harboring the SARS-CoV-2 Hu-1 spike
studyConditions: read-out: IC50, SARS-CoV-2 spike-driven pseudoparticle entry, Caco-2 cells, luciferase 48 h after transduction
Bridge positions count the residues as written; N and C are the ends. Ends that are not written are not given here.
readoutType: IC50 (µM)
# output: bare number, implied unit µM

Query: Fill in the blank: the reported IC50 of CNLPIVRGPCRAFIQLWAFDAVKGKCVLFPYGGCQGNGNKFYSEKECREYC (disulfide 1-51, 10-34, 26-47) [Bikunin KD 2] is ____.
Result: 0.17
